Cited source for all entries: PubChem BioAssay (NCI)

assay: NCI Yeast Anticancer Drug Screen. Data for the mec2-1 strain (AID 157); details: S. cerevisiae mec2-1 strain, at 50.0 µM
This is part of a sample that, as a whole, favours compounds with a hit. Of some 79,000 tested, about 15% had one in any assay. The source made the active and inactive calls. No stated cut-off is given here; in the data, active means growth inhibition above about 70%; inactive means the rest.
Outcome codes: yes (1) (active), no (0) (inactive)

compound	cat
CCCCC(CC)C(=O)O.[Sn] (stereo not given)	no (0)
CC(C)(Cl)[N+](=O)[O-]	no (0)
C[N+](C)(C)CC1CCCCC1=O (stereo not given)	no (0)
Cc1cccc(C)c1N=C(N)N[N+](=O)[O-]	yes (1)
[Cl][Pt][Cl].[NH-]NC(=O)c1ccncc1	no (0)
O=c1[nH]cc(N=Cc2ccccc2Cl)c(=O)[nH]1.[Cl][Pt][Cl]	no (0)
CC([NH-])C[NH-].CC([NH-])C[NH-].[Co].[NH2-].[NH2-] (stereo not given)	no (0)
CC(C)(C)C1=CC(=C(P(=O)(O)O)P(=O)(O)O)C=C(C(C)(C)C)C1=O	no (0)
CS(=O)(=O)OCCN(CCCl)c1cc(C(N)=O)c([N+](=O)[O-])cc1[N+](=O)[O-]	no (0)
CC(C)CCCC(C)[C@H]1CCC2[C@@H]3CCC4Cc5nc6c(nc5C[C@]4(C)C3CC[C@@]21C)CC1CC[C@@H]2C(CC[C@@]3(C)C2CC[C@@H]3O)[C@@]1(C)C6 (stereo not given in full)	no (0)

* * *

Experiment: NCI Yeast Anticancer Drug Screen. Data for the rad50 strain (AID 155);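 further: 0% = growth of vehicle-only cultures of the same strain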
Conditions: S. cerevisiae rad50 strain growth inhibition; at 50.0 µM (retest, dose inferred, filed as 5.0); active compounds read high
Method: Growth inhibition of yeast strains with defined genetic alterations is measured as a screen for potential anti-cancer activity. Selected strains with alterations in DNA damage repair or cell cycle control were exposed to compounds and growth inhibition was measured relative to vehicle treated controls. The strain used in this assay is rad50
Compounds without any hit were thinned out: in the full panel of roughly 79,000, 15% have a hit.
# growth inhibition per record follows

compound	growth inhibition, %
Nc1ccc(Br)cc1C(=O)c1ccccc1	95
COc1ccc([As](O[As](c2ccc(OC)cc2)c2ccc(OC)cc2)c2ccc(OC)cc2)cc1	99
CCCCCCCCN1CCN(CCCCCCCC)C2CCCCC21 (stereo unspecified) (tested in a mixture with another compound)	95
O=C1C=Cc2ccccc2C1=O	87
C[C@@H]1C[C@@H]([C@H](O)CC2CC(=O)NC(=O)C2)C(=O)[C@@H](C)C1	99
[CH3][Sn]([CH3])([S]CCS(=O)(=O)O)[S]CCS(=O)(=O)O	7

* * *

test: NCI Yeast Anticancer Drug Screen. Data for the sgs1 mgt1 strain (AID 161);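 further: 0% = growth of cultures given vehicle only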; conditions: S. cerevisiae sgs1 mgt1 strain, at 50.0 µM
This is part of a sample that, as a whole, favours compounds with a hit. Of some 79,000 tested, about 15% had one in any assay. Calls of active or inactive are those of the source. Rule as the data show it: active = growth inhibition above about 70%; inactive = the rest.
Outcome codes: 1 (active), 0 (inactive)

molecule	cat
CC(=O)Nc1ccc(C(=O)O)cc1	0
CCC/C=C/C=C/C(=O)OC1/C(=C/C(=O)OC)CC2CC(C(C)O)OC(=O)CC(O)CC3CC(OC(C)=O)C(C)(C)C(O)(CC4C/C(=C/C(=O)OC)CC(/C=C/C(C)(C)C1(O)O2)O4)O3 (stereo unspecified)	0
CN(N=O)C1=NC2(CCCCC2)P(=O)(NNc2ncccn2)O1 (stereo unspecified)	0
CCOP(=O)(OCC)C1CCC(=O)O1 (stereo unspecified)	0
CCOc1ccc(CCNC)c2c1ccc1ccc(OC)c(O)c12	1
C[N+](C)(C)NP(=O)(N[N+](C)(C)C)Oc1ccccc1	0
O=C(CBr)NC1CCCCC1	1
Cn1c(=O)n(C)c(=O)n(C)c1=O	0
O=[As](O)(O)c1ccc(F)cc1	0
CN1CCC(OC(=O)Oc2ccccc2)(c2ccccc2)CC1	0
CC(=O)N[C@@H](C[S-])C(=O)O.O=[N+]([O-])O.[Ag+]	0

* * *

assay: NCI Yeast Anticancer Drug Screen. Data for the mlh1 rad18 strain (AID 175); conditions: S. cerevisiae mlh1 rad18 strain growth inhibition; at 50.0 µM
Compounds without any hit were thinned out: in the full panel of roughly 79,000, 15% have a hit. Activity calls are given as the source filed them. No stated cut-off is given here; in the data, active means growth inhibition above about 70%; inactive means the rest.
Outcome codes: Y = active, N = inactive

compound	cat
C[CH2][Sn]([Br])([CH2]C)[c]1ccccc1CN(C)C	Y
CS/C([S-])=N/N=C(C)C.CS/C([S-])=N/N=C(C)C.[Pt+2]	N
COP(=O)(NC12CC3CC(CC(C3)C1)C2)OC	N
O=C(CC(=O)C(F)(F)F)c1ccco1	N
Cc1coc2c1CCC(C)C2 (configuration not stated)	N
COc1c(Cl)[c]([Hg][O]C(C)=O)c(NCC(C)=O)c(OC)[c]1[Hg][O]C(C)=O	Y
NC(Cc1ccccc1)c1nccs1 (configuration not stated)	N
O=C1CCC(=O)N1SC(Cl)(Cl)Cl	Y
O=Cc1ccccc1O	N
COc1cc(Cl)c(OP(=O)(OC)OC)cc1Cl	N
N#CCCCl	N
CN1CCN(Cc2ccccc2)C(C#N)C1 (configuration not stated)	N
CC(=O)OC1CC[C@@]2(C)C(=CC[C@@H]3[C@@H]2CC[C@]2(C)C(OC(C)=O)[C@H](n4ccnc4)C[C@@H]32)C1 (some centres not stated)	Y
O=[N+]([O-])c1ccc([Se]c2ncccn2)c([N+](=O)[O-])c1	N
c1cc[n+]2c3c(sc2c1)CCC3	N
CCC[CH2][Sn]([CH2]CCC)([CH2]CCC)[CH2]S(=O)(=O)O	Y
CN1CCC(C(O)(c2ccccc2)c2ccccc2)CC1	N
C[CH2][Sn]([CH2]C)([O]c1cccccc1=O)[O]c1cccccc1=O	N
CNC(=O)Oc1ccc2c(C)cc(=O)oc2c1	N
Cc1nccn1-c1ccc(Cl)cc1N=Cc1ccc(N(CCCl)CCCl)cc1Cl	Y
C[CH2][Sn]([CH2]C)[O][Sn]([Cl])([CH2]C)[CH2]C	Y
CC(C)CC(C)(c1ccc(O)cc1)c1ccc(O)cc1	Y
COc1ccc2nc3ccccc3c(NCCCCN(C)CCCl)c2c1	Y
C/C=C/C1(CCCC)C(=O)NC(=O)NC1=O	N
CN(C)CCc1ccc(Cl)cc1Cl	N
[CH3][Sn]([CH3])([CH3])[O][N+](=O)[O-]	N
CC12CCC(O)CC1CCC1C2CCC2(C)C(c3ccc(=O)oc3)CC3OC312 (configuration not stated)	N
CCOP(=S)(OCC)SSSP(=S)(OCC)OCC	N
CN(C)CCNC(=O)c1ccc([N+](=O)[O-])c(C(C)(C)C(=O)Nc2ccc(N(CCCl)CCCl)cc2)c1	N
CC(=O)NC1=C(N(CCCl)CCCl)C(=O)c2ccccc2C1=O	Y
Cc1ccc(NCc2ccccc2)cc1[As](=O)(O)O	N
O=C(N/N=C/c1cc(Br)cc(Br)c1[O-])c1ccccc1O.O=C(N/N=C/c1cc(Br)cc(Br)c1[O-])c1ccccc1O.[Mn+2]	Y
CN(Cc1ccccc1)CC(O)c1cccc(I)c1 (configuration not stated)	N
CNC1C(O)CC(OC2C/C=C(\C)C/C(C)=C/C=C/CCC(C)CNC(=O)/C=C/C=C/C2C)OC1C (configuration not stated)	Y
CP1(=O)CCC23CCCCC21O3 (configuration not stated)	N
CC12CCC3C(CC=C4CC(=O)CCC43CCO)C1CCC2Oc1ccccc1 (configuration not stated)	N
CC1(C)OP(=O)(O)C=C1[Se]c1ccccc1	N
CN1C(=O)C(C)(C2=CCCCC2)C(=O)NC1=S (configuration not stated)	N
[NH-]C(CCC(N)=O)C(=O)O.[NH-]C(CCC(N)=O)C(=O)O.[Zn+2] (configuration not stated)	N
CCC1CC[N-]CC1.CCC1CC[N-]CC1.[Cl][Pt+2][Cl]	N
ClC1=C(Cl)C2(Cl)C(Cl)CC1(Cl)C2(Cl)Cl (configuration not stated)	Y
COc1ccc(-c2nc(-c3ccc(N=Cc4ccc(N(CCCl)CCCl)cc4)cc3)cs2)cc1	N
O=C(NC(CSC(c1ccccc1)(c1ccccc1)c1ccccc1)C(=O)O)OCc1ccccc1 (configuration not stated)	N
CCCCCCCCCCCCCCC(=O)[O][Hg][c]1ccccc1	Y
COc1cc2c(cc1OC)C1CC(OC(=O)c3ccccc3)(c3nccc4cc(OC)c(OC)cc34)CCN1CC2 (configuration not stated)	N
C1=[N+]2CCCC2Cc2ccc3ccccc3c21 (configuration not stated)	N
CC1=C(C)C(=O)C(C)=C(C)C1=O	N

* * *

# growth inhibition per record follows
assay: NCI Yeast Anticancer Drug Screen. Data for the rad50 strain (AID 155);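 further: 0% = growth of vehicle-only cultures of the same strain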; conditions: S. cerevisiae rad50 strain growth inhibition; at 50.0 µM; active compounds read high
About 79,000 compounds went through this panel and 15% of them were active in at least one assay; those are over-represented in the sample as a whole.
measurement kind: growth inhibition (%)

compound	unit tag	reported measurement
COP(=O)(NC(=O)OC(C)C)OC	%	-37.1
O=C(CCC(=O)Oc1ccc(S(=O)(=O)F)cc1)Oc1ccc(S(=O)(=O)F)cc1	%	49.1
S=C=[N][Sn]([N]=C=S)([c]1ccccc1)[c]1ccccc1.c1ccc2nc(-c3ccc4ccccc4n3)ccc2c1	%	89.3
C1CCC(NC2CCCC2)C1	%	13.4
CCOP1(=S)NNP(=S)(OCC)NN1 (configuration not stated)	%	-2.75
CCN(CC)C(=O)N1CC2CCC(C1)N2C	%	-4.6
S=C(Nc1ccccc1)Nc1ccc(N(CCCl)CCCl)cc1	%	17.6
CN(C=O)NC(=O)N(CCCl)N=O	%	55.2
CN(C)CCc1ccccc1	%	-15.1
C1CN1Sc1nc(SN2CC2)nc(SN2CC2)n1	%	-1.35
COc1cc2[nH]cc(CN(C)C)c2cc1OC	%	3
CC(C)CCC(=O)OC1CCC2(C)C(=CCC3C2CCC2(C)C(O)CCC32)C1 (configuration not stated)	%	42
